Consider the following compounds; for each one, report its %Inh.
Test system: NIM1
Construct: gene MGC42105
Conditions: concentration: 1 μM, replicates: in singlicate; n = 1;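 note: KINOMEscan kinase panel screen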
Dear colleague, please return just the value in %, with no unit written.

I looked up Cc1cc(N2CCC(NS(=O)(=O)c3ccc(F)cc3)CC2)nc(Nc2cccc(C#N)c2)n1.O=C(O)C(F)(F)F and its %Inh for NIM1 was 18

%Inh of COc1ccc(Nc2nccc(N3CCC(NC(=O)Nc4ccc5c(c4)OCO5)C3)n2)cc1 (stereo not drawn) , assay on NIM1, is 22

# lookup: CCc1nc(-c2cccc(C)c2)c(-c2ccnc(NC(=O)c3ccccc3)c2)s1 on NIM1, %Inh = 11

Readout %Inh for CNc1nccc(-c2c(-c3ccc(F)cc3)ncn2CCCN2CCOCC2)n1 , test system NIM1, was 14

Short answer on NIM1 for Nc1nccc2scc(-c3ccc4c(c3)CCN4C(=O)Cc3cc(F)ccc3F)c12 , %Inh: 18

%Inh of FC(F)(F)c1cc(Nc2nccc(-c3c(-c4ccc(Cl)cc4)nn4ncccc34)n2)ccc1Cl , assay on NIM1, is 0

The compound Nc1nc(-c2ccccn2)c(-c2ccnc3ccccc23)s1 , tested on NIM1, showed %Inh of 38

The value of %Inh recorded for Cc1ccc(O)cc1Nc1cc(C(F)(F)F)nc2ccc(-c3ccncc3)cc12 when tested on NIM1 reads 0

So the reported %Inh for FC(F)(F)c1ccc(-c2cc(-c3c[nH]nc3-c3ccccn3)ccn2)cc1 , on NIM1, turned out to be 11

----------
Test system: PRKX
Conditions: concentration: 1 μM, replicates: in singlicate; n = 1
OBSERVABLE: %Inh (%)
Give the value, in units of %, as a plain number.

Looking up O=C(NCCCN1CCCC1=O)c1cnc(NCc2cc(Cl)ccc2Cl)nc1NC1CCNCC1 , I see its %Inh listed as 0

In plain terms, c1ccc(-c2ccc3c(-c4ccnc(Nc5ccc6c(c5)OCCO6)n4)cnn3n2)cc1 has a documented %Inh of 1

Noted for C[C@H]1CC[C@@H](C(=O)Nc2ccccc2)CN1c1cc(-c2ccc3c(N)n[nH]c3c2)nc(N)n1 : its %Inh reads 8

Briefly, %Inh measured for COc1ccc(NC(=O)Nc2ccc(C)c(-c3ccc(C(=O)Nc4ccncc4)cc3)c2)cc1 : 10

// FC(F)(F)c1ccc(-c2nn3ncccc3c2-c2ccnc(Nc3cccc(C(F)(F)F)c3)n2)cc1 : %Inh value = 0

In plain terms, COc1ccc(Nc2nccc(N3CCC(NC(=O)c4cccc(NC(C)=O)c4)C3)n2)cc1 (stereo not drawn) has a documented %Inh of 0

Looking up CCc1nc(-c2cccc(C)c2)c(-c2ccnc(NC(=O)c3ccccc3)c2)s1 , I see its %Inh listed as 0

Sure, the documented %Inh for Nc1n[nH]c2nnc(-c3ccccc3)cc12 is 0

Looking up Nc1nc(-c2cccnc2)c(-c2ccnc3ccccc23)s1 , I found its %Inh recorded as 31

%Inh recorded for this compound, O=C(Nc1n[nH]c2nc(-c3ccco3)c(Br)cc12)c1ccc(CN2CCCC2)cc1.O=C(O)[C@H](O)[C@@H](O)C(=O)O , is 0

// sample Fc1cccc(COc2ccc(Nc3ncnc4sc(-c5ccc[nH]5)cc34)cc2Cl)c1 , its %Inh was 4

Per the record, Fc1ccc(-c2ncn(CCCNCc3ccccc3)c2-c2ccncc2)cc1 has %Inh of 0

%Inh reported for this compound CC(C)N1CCC(n2cnc(-c3ccc(F)cc3)c2-c2ccnc(N)n2)CC1 : 0

In plain terms, Nc1nc(-c2ccc3c(N)n[nH]c3c2)cc(N2CCCCC2)n1 has a documented %Inh of 35

For reference, reported %Inh for COc1ccc(Nc2nccc(N3CCC(NC(=O)Nc4ccc5c(c4)OCO5)C3)n2)cc1 (stereo not drawn) stands at 19

Notebook: COc1cc2ncnc(Nc3ccc(OCc4ccccc4Br)c(Cl)c3)c2cc1OC.Cl , %Inh read as 0

For reference, reported %Inh for CS(=O)(=O)CCNCc1nc(-c2ccc3ncnc(Nc4ccc(OCc5cccc(F)c5)c(Cl)c4)c3c2)cs1.Cl stands at 0

Recorded result, O=C(Nc1ccccc1F)NC1CCN(c2ccnc(Nc3ccc(F)cc3)n2)C1 (stereo not drawn) , %Inh: 17

----------
Please go through the items and note down their %Inh.
Test system: DAPK2
Conditions: concentration: 1 μM, replicates: in singlicate; n = 1
Respond numerically; units are % and should not be typed.

Cl.O=S(=O)(c1cccc(F)c1)c1ccc(Nc2ncnc3cc(Br)sc23)cc1Cl [GSK306886] has a reported %Inh of 0

Consider COc1ccc(NC(=O)Nc2ccc(C)c(-c3ccc(C(=O)Nc4ccncc4)cc3)c2)cc1 [GSK1398475] . Its measured %Inh is 0

Summary for this molecule, Nc1nc(-c2ccccn2)c(-c2ccnc3ccccc23)s1 [GW548057] : %Inh is 13

Reported %Inh of Nc1nc(-c2ccc3c(N)n[nH]c3c2)cc(N2CCCCC2)n1 [GSK2228768] : 0

Reported %Inh for Cl.Cn1ccc(-c2cccc(Nc3ccnc4cc(-c5nccs5)ccc34)c2)n1 [GW525701] was 0

----------
System: IRAK3
Conditions: concentration: 1 μM, replicates: in singlicate; n = 1
OBSERVABLE: %Inh (%)
# number only, unit % dropped from output

The molecule COc1ccc(Nc2nccc(N3CCC(NC(=O)Nc4ccc5c(c4)OCO5)C3)n2)cc1 (centres unmarked) , tested on IRAK3, showed %Inh of 11

Observed %Inh on IRAK3, entry COC(=O)c1c(-c2ccccc2)c2cc(Cl)ccc2c(=O)n1Cc1ccc(S(C)(=O)=O)cc1 , equals 19

Note to self: %Inh of NC(=O)c1sc(-n2cnc3ccccc32)cc1OCc1ccccc1F with IRAK3 was 0

Case Cc1ccc(NC(=O)c2cccc(C#N)c2)cc1-c1ccc(C(=O)Nc2ccncc2)cc1 , IRAK3, %Inh recorded as 9

// %Inh (IRAK3) for OCCOCCn1ccc2ncnc(Nc3ccc(Oc4cccc(Cl)c4)c(Cl)c3)c21 = 0

Value sought: %Inh, system IRAK3, item Cn1cc(-c2ccc3c(c2)CCN3C(=O)Cc2cccc(C(F)(F)F)c2)c2c(N)ncnc21 . Result: 15

IRAK3 %Inh of FC(F)(F)c1cc(Nc2nccc(-c3c(-c4ccc(Cl)cc4)nn4ncccc34)n2)ccc1Cl is 0

Item: CNc1nccc(-c2c(-c3ccc(F)cc3)ncn2CCCN2CCOCC2)n1 | System: IRAK3 | %Inh: 10

----------
Tested on: FGFR3
Conditions: concentration: 1 μM, replicates: in singlicate; n = 1
OBSERVABLE: %Inh (%)
Number in %, nothing else.

Recorded %Inh (molecule Clc1ccc(-c2cc(-c3c[nH]nc3-c3ccccn3)ccn2)cc1 ): 1

%Inh in this record for Clc1cccc(-c2nc(Nc3ccncc3)c3ccccc3n2)c1 : 0

%Inh reported for this molecule Oc1ccc2ncnc(Nc3ccc(OCc4ccccc4)cc3)c2c1 : 0

Data point: Cc1cccc(-c2nc(Nc3ccc4[nH]nnc4c3)c3ccccc3n2)n1 ; %Inh = 0

What the record says about Cl.c1ccc(Cn2ncc3cc(Nc4ncnc5ccccc45)ccc32)cc1 : %Inh is 0

Looking up CCc1nc(-c2cccc(N(C)S(=O)(=O)c3ccccc3)c2)c(-c2ccnc(Nc3ccc(N4CCN(C(C)=O)CC4)nc3)n2)s1 , I see its %Inh listed as 3

Cn1ccc2ncnc(Nc3ccc(Oc4cccc(Cl)c4)c(Cl)c3)c21 yielded %Inh of 1

Sure, the documented %Inh for CC(C)N1CCC(n2cnc(-c3ccc(F)cc3)c2-c2ccnc(N)n2)CC1 is 21

The molecule listed as Cc1ccc(C)c(NC(=O)NCCNc2ccnc(Nc3ccc(F)cc3)n2)c1 has a reported %Inh of 0

----------
Test system: SRPK2
Conditions: concentration: 1 μM, replicates: in singlicate; n = 1
Kindly supply the reported %Inh values for the records listed here.

%Inh in this record for NC(=O)c1sc(-n2cnc3ccccc32)cc1OCc1ccccc1F [GSK1024306] : 0%

// recorded %Inh for CCn1c(-c2ccncc2)nc2cnccc21 [SB-735216] : 24%

Memo: Cl.O=S(=O)(c1cccc(F)c1)c1ccc(Nc2ncnc3cc(Br)sc23)cc1Cl [GSK306886] , reported %Inh: 0%

The compound listed as CC(C)N1CCC(n2cnc(-c3ccc(F)cc3)c2-c2ccnc(N)n2)CC1 [SB-223132] has a reported %Inh of 45%

For record CNc1nccc(-c2c(-c3ccc(F)cc3)ncn2CCCN2CCOCC2)n1 [SB-222516] the listed %Inh is 0%

Cc1cc(N2CCC(NS(=O)(=O)c3ccc(F)cc3)CC2)nc(Nc2cccc(C#N)c2)n1.O=C(O)C(F)(F)F [GSK1653537] yielded %Inh of 0%

The compound listed as CS(=O)(=O)CCNCc1ccc(-c2ccc3ncnc(Nc4ccc(OCc5ccccc5)c(Cl)c4)c3c2)o1.Cl [GW574783] shows %Inh equal to 0%

%Inh measured on Nc1nc(-c2ccc3c(N)n[nH]c3c2)cc(N2CCCCC2)n1 [GSK2228768] = 0%

Note to self: %Inh recorded for C[C@@H]1CCN(C(=O)CO)C[C@@H]1N(C)c1ncnc2[nH]ccc12 was 0%

Briefly, %Inh measured for Cl.Cn1ccc(-c2cccc(Nc3ccnc4cc(-c5nccs5)ccc34)c2)n1 [GW525701] : 51%
